The measurements presented in this section are drawn from the NIST ThermoML archive (doi:10.1021/je600573w).

# EXPERIMENTAL SETUP: 308.15 K; 101.33 kPa; Liquid; Vibrating tube method
mass density reference
The response must be a number in kg/m3 with no trailing unit.

Example entries begin here.
> print(dat)
                                   compound  experimental.value
1                 Brc1ccccc1 [bromobenzene]             1474.94
2    Clc1ccccc1Br [1-bromo-2-chlorobenzene]             1633.01
3       Brc1cccc(Br)c1 [1,3-dibromobenzene]             1933.61
4  Clc1cccc(Br)c1 [1-bromo-3-chlorobenzene]             1611.51
5        Clc1ccccc1Cl [1,2-dichlorobenzene]             1289.45
6                Clc1ccccc1 [chlorobenzene]             1090.34
7         Brc1ccccc1Br [1,2-dibromobenzene]             1957.62
8  Clc1ccc(Cl)c(Cl)c1 [1,2,4-trichlorobenzene]             1436.73

Okay, next one:
Specify reported mass density for the compound shown: Clc1cccc(Cl)c1 [1,3-dichlorobenzene]
1271.49
